# normalized growth annotations
assay: chemical genetic growth profiling, strain panel (AID 1159580);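 also: tested at 20 µM; growth read once vehicle control cultures reached saturation at 30 °C; 1 = growth at the plate median or of vehicle wells; lower values mean less growth of the strain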; details: S. cerevisiae deletion strains, growth OD, locus YKL101W, strain HSL1, stronger effect = lower value
The campaign covered roughly 5,500 compounds. About 2,000 (36%) were called active. Not shown: some 18% with an inconclusive outcome. The list shows a part of the results.

Write down normalized growth measured for item O=C(NNc1ccccc1F)c1ccno1
0.905 (inactive)

Quickly give me recorded normalized growth for Cc1ccc(-c2csc(-c3cccnc3)n2)c(C)c1
0.914 (inactive)

Kindly indicate its recorded normalized growth. Item: Cc1ccc(/C=C2\CSc3ccc(F)cc3C2=O)cc1
0.895 (inactive)

====

Reported normalized growth by item:
assay: chemical genetic growth profiling, strain panel (AID 1159580);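 also: tested at 20 µM; growth read once vehicle control cultures reached saturation at 30 °C; 1 = growth at the plate median or of vehicle wells; lower values mean less growth of the strain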; settings: S. cerevisiae deletion strains, growth OD, locus YPL106C, strain sse1, stronger effect = lower value
Screen size: about 5,500 compounds; about 2,000 (36%) were called active. Inconclusive results (about 18%) are left out. Some of the results follow.

Using the record for ClC1=C(Cl)C2(Cl)C3C4C=CC(C4)C3C1(Cl)C2(Cl)Cl (stereo unspecified) , state its measured normalized growth.
1 (inactive)

Supply normalized growth value. Item: C=C1C2CC[C@H]3[C@]4(C)C[C@H](OC5OC(CO)C(OS(=O)(=O)O)C(OS(=O)(=O)O)C5OC(=O)CC(C)C)C[C@@H](C(=O)O)[C@H]4CC[C@]3(C2)[C@H]1O (stereo partly specified)
1.01 (inactive)

For the compound CCN(CC)CCCC(C)Nc1c2ccc(Cl)cc2nc2ccc(OC)cc12 (stereo unspecified) , report normalized growth.
0.984 (inactive)

Report measured normalized growth; entry is NCCSSCCN
0.984 (inactive)

For the compound c1cncc(C2CCCCN2)c1 (stereo unspecified) , report normalized growth.
0.972 (inactive)

Item COc1ccc2cc([C@H](C)C(=O)O)ccc2c1 : provide normalized growth
0.994 (inactive)

====

assay: chemical genetic growth profiling, strain panel (AID 1159580);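 also: tested at 20 µM; growth read once vehicle control cultures reached saturation at 30 °C; 1 = growth at the plate median or of vehicle wells; lower values mean less growth of the strain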; settings: S. cerevisiae deletion strains, growth OD, locus YLR370C, strain arc18, stronger effect = lower value
Among all 5,500 compounds or so, about 2,000 (36%) were called active. Another 18% or so got no clear call; they are omitted. Some of the results follow.
Quick reference for normalized growth among some compounds
Give your answer as a number; write no unit.

Illustrative cases are given below, each with its answer.
CCOC(=O)[C@H](CCc1ccccc1)N[C@H]1CCc2ccccc2N(CC(=O)O)C1=O | 0.988
C[N+](C)(C)CCOC(N)=O | 1.01
CC1=C(C/C=C(\C)CCC[C@H](C)CCC[C@H](C)CCCC(C)C)C(=O)c2ccccc2C1=O | 0.99

Supply recorded normalized growth for COc1cc2c(cc1OC)Cc1cc(OC)c(OC)cc1Cc1cc(OC)c(OC)cc1C2 here.
1.03

====

Listing: normalized growth of selected molecules
experiment: chemical genetic growth profiling, strain panel (AID 1159580);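 also: tested at 20 µM; growth read once vehicle control cultures reached saturation at 30 °C; 1 = growth at the plate median or of vehicle wells; lower values mean less growth of the strain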; conditions: S. cerevisiae deletion strains, growth OD, locus YBR021W, strain FUR4, stronger effect = lower value
Out of some 5,500 compounds screened, about 2,000 (36%) were called active. About 18% were inconclusive and are not listed. The list shows a part of the results.
Provide a numeric answer; units are not to be included.

Consider the following illustrative entries.
CS(=O)(=O)c1ccc(C2=C(c3ccccc3)C(=O)OC2)cc1 | 0.986
c1cncc(C2CCCCN2)c1 (stereo unspecified) | 1.02
CC1=C(C(C)O)C2=NC1C=c1[nH]c(c(C)c1C(C)O)=Cc1[nH]c(c(CCC(=O)O)c1C)C=c1[nH]c(c(C)c1CCC(=O)O)=C2 (stereo unspecified) | 0.998
CC(N)C(=O)OC(C)(C)Cc1ccc(Cl)cc1 (stereo unspecified) | 0.943
CC(Oc1ccccc1)C(=O)N[C@@H]1C(=O)N2[C@@H]1SC(C)(C)[C@@H]2C(=O)O (stereo partly specified) | 0.999
C[C@]12CC(=O)C3C(CC[C@@H]4C[C@H](O)CC[C@]34C)C1CC[C@]2(O)C(=O)CO (stereo partly specified) | 0.976
COc1cc2c(cc1OC)[C@@H]1C(=O)c3ccc4oc(C(C)C)cc4c3O[C@@H]1CO2 | 1.01
CC[C@H]1OC(=O)[C@H](C)[C@@H](O[C@H]2C[C@@](C)(OC)[C@@H](O)[C@H](C)O2)[C@H](C)[C@@H](O[C@@H]2O[C@H](C)C[C@H](N(C)C)[C@H]2O)[C@](C)(O)C[C@@H](C)CN(C)[C@H](C)[C@@H](O)[C@]1(C)O | 0.96

Indicate its recorded normalized growth; the molecule in question is CCCCNc1cc(C(=O)O)cc(S(N)(=O)=O)c1Oc1ccccc1
0.985

Hello, the source for this data is PubChem BioAssay AID1159580, in case you need it.
